Reported values of RORγt (FL) Reporter Assay B or C, % inhibition (value marked *) for individual entries
tested.target: full-length human RORγt (Homo sapiens (Human), UniProt P51449)
Sequence (P51449 other isoform, or with tags, fused parts or gaps): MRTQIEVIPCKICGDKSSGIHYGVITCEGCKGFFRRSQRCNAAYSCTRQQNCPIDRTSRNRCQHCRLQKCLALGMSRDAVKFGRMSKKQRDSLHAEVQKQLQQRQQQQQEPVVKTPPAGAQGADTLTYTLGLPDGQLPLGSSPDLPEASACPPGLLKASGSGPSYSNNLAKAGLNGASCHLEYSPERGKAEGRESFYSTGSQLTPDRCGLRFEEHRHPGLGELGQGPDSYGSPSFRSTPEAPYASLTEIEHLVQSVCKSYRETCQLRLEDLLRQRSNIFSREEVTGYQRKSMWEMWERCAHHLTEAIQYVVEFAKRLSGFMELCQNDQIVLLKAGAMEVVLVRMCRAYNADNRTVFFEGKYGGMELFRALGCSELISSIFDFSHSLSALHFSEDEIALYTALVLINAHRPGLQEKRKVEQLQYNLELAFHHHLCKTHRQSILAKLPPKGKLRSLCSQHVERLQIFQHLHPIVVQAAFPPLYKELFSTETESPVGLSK
measurement.notes: RORγt (full-length human) reporter assay, Conditions B or C
Type: cell-based
condition.summary: Conditions B or C; marked *: footnote not given
reported.property: RORγt (FL) Reporter Assay B or C, % inhibition (value marked *)

| compound | tested.target | reported.result |
| --- | --- | --- |
| C[C@@H](Nc1cc(C(F)F)c(-c2sc(C(=O)NCC(C)(C)O)nc2C(=O)N2CCC[C@@H]2C)cn1)C1CC1 | full-length human RORγt (Homo sapiens (Human), UniProt P51449) | 100* % |
| CC(Nc1cc(C(F)(F)F)c(-c2sc(C(=O)NCC(C)(C)O)nc2C(=O)N2CC(F)(F)C[C@@H]2C)cn1)C1CCC1 (some centres unmarked) | full-length human RORγt (Homo sapiens (Human), UniProt P51449) | 106* % |
| C[C@H](Nc1cc(C(F)F)c(-c2sc(C(=O)N[C@@H]3COC[C@H]3O)nc2C(=O)N2CCC[C@@H]2C)cn1)C(F)(F)F | full-length human RORγt (Homo sapiens (Human), UniProt P51449) | 107* % |
| CC[C@@H](Nc1cc(C(F)F)c(-c2sc(C(=O)N[C@@H](C)C(C)(C)O)nc2C(=O)N2CCC[C@@H]2C)cn1)C(F)(F)F | full-length human RORγt (Homo sapiens (Human), UniProt P51449) | 99* % |
| C[C@H]1CCCCN1C(=O)c1nc(C(=O)NCC(C)(C)O)sc1-c1cnc(NCC(C)(C)C)cc1C(F)(F)F | full-length human RORγt (Homo sapiens (Human), UniProt P51449) | 127* % |
| C[C@H]1CC(F)(F)CN1C(=O)c1nc(C(=O)NCC(C)(C)O)sc1-c1cnc(NC2(C)CCC2)cc1C(F)(F)F | full-length human RORγt (Homo sapiens (Human), UniProt P51449) | 100* % |
| CC[C@H](Nc1cc(C(F)(F)F)c(-c2sc(C(=O)NCC(C)(C)O)nc2C(=O)N2CCC[C@@H]2C)cn1)C(F)(F)F | full-length human RORγt (Homo sapiens (Human), UniProt P51449) | 106* % |
| C[C@H](Nc1cc(C(F)F)c(-c2sc(C(=O)N[C@@H]3CCC[C@H]3O)nc2C(=O)N2C3CCC2CC3)cn1)C(F)(F)F | full-length human RORγt (Homo sapiens (Human), UniProt P51449) | 112* % |
| C[C@H](CO)NC(=O)c1nc(C(=O)N2C3CCC2CC3)c(-c2cnc(N[C@@H](C)C(F)(F)F)cc2C(F)F)s1 | full-length human RORγt (Homo sapiens (Human), UniProt P51449) | 94* % |
| C[C@@H](Nc1cc(C(F)(F)F)c(-c2sc(C(=O)NCC(C)(C)O)nc2C(=O)N2CCC[C@@H]2C)cn1)C1CC1 | full-length human RORγt (Homo sapiens (Human), UniProt P51449) | 111* % |
| C[C@H]1CC(F)(F)CN1C(=O)c1nc(C(=O)NCC(C)(C)O)sc1-c1cnc(NC(C2CC2)C2CC2)cc1C(F)F | full-length human RORγt (Homo sapiens (Human), UniProt P51449) | 117* % |
